Assay: NCI Yeast Anticancer Drug Screen. Data for the cln2 rad14 strain (AID 165)
Conditions: S. cerevisiae cln2 rad14 strain, at 50.0 µM
Procedure: Growth inhibition of yeast strains with defined genetic alterations is measured as a screen for potential anti-cancer activity. Selected strains with alterations in DNA damage repair or cell cycle control were exposed to compounds and growth inhibition was measured relative to vehicle treated controls. The strain used in this assay is cln2 rad14
The panel holds about 79,000 compounds, 15% with a hit somewhere; the sample as a whole holds those more often. The source made the active and inactive calls. No stated cut-off is given here; in the data, active means growth inhibition above about 70%; inactive means the rest.
Just give me one of these, please: TRUE (active), FALSE (inactive)

Before answering, review these 5 worked examples.
>>> assigned_label("CCc1ccc2c(-c3ccccc3)c3ccccc3c(-c3ccccc3)c2c1")
"FALSE"
>>> assigned_label("O=C(CN(Cc1ccccc1)Cc1ccccc1)N1CCc2c([nH]c3ccccc23)C1c1cccnc1 (stereo not given)")
"TRUE"
>>> assigned_label("O=C1OC(c2cccc(Cl)c2)=N/C1=C\\C=C/c1ccccc1")
"FALSE"
>>> assigned_label("O=NNc1ncc(Sc2ccccc2)nc1Sc1ccccc1")
"FALSE"
>>> assigned_label("Cc1ccc(S(=O)(=O)Nn2c(S)c(C#N)c(-c3ccc([N+](=O)[O-])cc3)c(C#N)c2=O)cc1")
"FALSE"

Qu. For CC(=O)Oc1ccc(N2C(=O)C=CC2=O)cc1 , which call appears in the assay record?
Ans. FALSE

Qu. For CCc1cc(-c2ccco2)c(C#N)c(=S)n1C1OC(COC(C)=O)C(OC(C)=O)C(OC(C)=O)C1OC(C)=O (stereo not given) , which call appears in the assay record?
Ans. FALSE

Qu. For O=C1c2cc(F)ccc2-c2c(F)cc(F)c(F)c21 , which call appears in the assay record?
Ans. FALSE

Qu. For O=C1c2ccccc2C(=O)N1CCn1ccc(NC(c2ccccc2)(c2ccccc2)c2ccccc2)nc1=O , which call appears in the assay record?
Ans. TRUE

Qu. For CCNC(=O)COc1ccc(Cl)cc1Cl , which call appears in the assay record?
Ans. FALSE
